Provenance of the data: ChEMBL document CHEMBL4145688

Assay: Distribution coefficient between 1-octanol and aqueous phosphate buffer, logD of the compound in pH 7.4 buffer
Type: physicochemical
Details: 1-octanol/aqueous phosphate buffer
Label N if logD falls below 4; label Y in every other case.

CCS(=O)(=O)c1ccc(CC(=O)Nc2cc(-c3cccnc3OCc3cccc(C#N)c3)cs2)cc1 Y
CCS(=O)(=O)c1ccc(CC(=O)Nc2cc(-c3cc(C#N)ccc3OC)cs2)cc1 N
CCS(=O)(=O)c1ccc([C@@H](NC(C)=O)C(=O)Nc2cc(-c3cccnc3OCc3ccc(OC(F)(F)F)cc3)cs2)cc1 Y
CCS(=O)(=O)c1ccc(CC(=O)Nc2cc(-c3cc(C#N)ccc3Cl)cs2)cc1 N
CCS(=O)(=O)c1ccc(CC(=O)Nc2cc(-c3cccnc3Oc3ccccc3)cs2)cc1 Y

Here is the next item to consider.
[ask] Hi team, for CCS(=O)(=O)N1CCC(CC(=O)Nc2cc(-c3cc(C#N)cnc3OC)cs2)CC1 , is the recorded logD at or above 4?
[reply] N

* * *

Test: Distribution coefficient between 1-octanol and aqueous phosphate buffer, logD of the compound in pH 7.4 buffer
Type: physicochemical
Details: 1-octanol/aqueous phosphate buffer
Label not satisfied if logD falls below 4; label satisfied in every other case.

molecule	assigned class
CCS(=O)(=O)c1ccc(C(NC(C)=O)C(=O)Nc2cc(-c3cc(C#N)cnc3OC)cs2)cc1 (stereo not given)	not satisfied
CCS(=O)(=O)c1ccc(C(NC(C)=O)C(=O)Nc2cc(-c3cc(C#N)cnc3OCC(F)(F)F)cs2)cc1 (stereo not given)	not satisfied
CCS(=O)(=O)c1ccc(C(NC(C)=O)C(=O)Nc2cc(-c3cccnc3OCc3ccc(OC(F)(F)F)cc3)cs2)cc1 (stereo not given)	satisfied
CCS(=O)(=O)c1ccc(CC(=O)Nc2cc(-c3cccnc3OC)cs2)cc1	not satisfied

Here is the next item to consider.
[ask] Hi team, for CCS(=O)(=O)c1ccc(C(N)C(=O)Nc2cc(-c3cc(C#N)cc(F)c3OC)cs2)cc1 (stereo not given) , is the recorded logD at or above 4?
[reply] not satisfied

* * *

Experiment: Half life in Han Wistar rat at 0.5 mg/kg, iv or 1 mg/kg, po
Type: ADME, organism-based
Settings: in vivo
quantity measured: half-life (h)
Express the result in h but write the number alone.

Record excerpt, results attached:
CCS(=O)(=O)c1ccc(CC(=O)Nc2cc(-c3cc(C#N)cnc3OCC(F)(F)F)cs2)cc1 4.4
CCS(=O)(=O)c1ccc([C@@H](NC(C)=O)C(=O)Nc2cc(-c3cccnc3OCc3ccc(OC(F)(F)F)cc3)cs2)cc1 4.3
CCS(=O)(=O)c1ccc(CC(=O)Nc2cc(-c3cccnc3Oc3ccc(OC(F)(F)F)cc3)cs2)cc1 1.6
CCS(=O)(=O)c1ccc(CC(=O)Nc2cc(-c3cc(C#N)cc(F)c3OC)cs2)cc1 1.2

Now for another entry.
[ask] Request the reported half-life associated with CCS(=O)(=O)c1ccc(CC(=O)Nc2cc(-c3cccnc3OCc3ccc(OC(F)(F)F)cc3)cs2)cc1
[reply] 1.4

* * *

Test: Cytotoxicity in human Th17 cells assessed as effect on cell viability by cell-titer-Glo luminescent cell viability assay relative to control
Type: cell-based
Settings: read-out: Efficacy
Emax overview
Express the result in % but write the number alone.

Record excerpt, results attached:
CCCOc1ncccc1-c1csc(NC(=O)Cc2ccc(S(=O)(=O)CC)cc2)c1 40
CCS(=O)(=O)c1ccc(CC(=O)Nc2cc(-c3cccnc3OCc3ccccc3)cs2)cc1 30
CCS(=O)(=O)c1ccc(CC(=O)Nc2cc(-c3cccnc3OCCCc3ccccc3)cs2)cc1 30
CCS(=O)(=O)c1ccc(CC(=O)Nc2cc(-c3cccnc3OCc3cccc(C#N)c3)cs2)cc1 50
CCS(=O)(=O)c1ccc(CC(=O)Nc2cc(-c3cccnc3OCc3ccc(C#N)cc3)cs2)cc1 50
CCS(=O)(=O)c1ccc(CC(=O)Nc2cc(-c3cccnc3OCCc3ccccc3)cs2)cc1 70
CCS(=O)(=O)c1ccc(CC(=O)Nc2cc(-c3cccc(Cl)c3)c(C(=O)c3ccccc3Cl)s2)cc1 40
CCS(=O)(=O)c1ccc(CC(=O)Nc2cc(-c3cccnc3OCc3ccc(OC(F)(F)F)cc3)cs2)cc1 40
CCS(=O)(=O)c1ccc(CC(=O)Nc2cc(-c3cccnc3OC/C=C/c3ccccc3)cs2)cc1 40
CCS(=O)(=O)c1ccc(CC(=O)Nc2cc(-c3cc(C#N)cc(F)c3OC)cs2)cc1 60

[ask] Request the reported Emax associated with CCS(=O)(=O)c1ccc(CC(=O)Nc2cc(-c3cccnc3Oc3ccccc3)cs2)cc1
[reply] 50
